target entity: Recombinant human MALT-1 (amino acids 340-824) (Homo sapiens (Human), UniProt Q9UDY8)
Sequence (Q9UDY8 340-824): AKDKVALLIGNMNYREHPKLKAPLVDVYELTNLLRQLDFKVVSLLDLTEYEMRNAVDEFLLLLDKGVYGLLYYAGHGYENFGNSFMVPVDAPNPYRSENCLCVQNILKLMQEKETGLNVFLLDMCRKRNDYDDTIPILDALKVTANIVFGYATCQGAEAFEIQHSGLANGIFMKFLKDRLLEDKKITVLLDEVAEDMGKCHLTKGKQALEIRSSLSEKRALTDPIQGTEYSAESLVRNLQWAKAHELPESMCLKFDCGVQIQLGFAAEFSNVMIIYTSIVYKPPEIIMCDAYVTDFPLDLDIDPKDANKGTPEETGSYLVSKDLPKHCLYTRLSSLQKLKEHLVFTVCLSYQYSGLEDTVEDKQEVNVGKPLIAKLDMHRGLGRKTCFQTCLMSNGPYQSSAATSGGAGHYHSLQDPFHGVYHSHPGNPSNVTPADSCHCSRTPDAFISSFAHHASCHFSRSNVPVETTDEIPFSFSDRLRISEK
method notes: MALT-1 inhibition assay (fluorogenic substrate Ac-LRSR-Rh110-DP)
Assay type: biochemical
run parameters: recombinant human MALT-1, substrate Ac-LRSR-Rh110-DP
property measured: pIC50
# pIC50 is unitless: minus log10 of the molar concentration; print number only

Item: COc1ccccc1CC(=O)N(C)[C@@H](c1ccc(N2CCCc3c2cnc2cc(Cl)nn32)cc1)C(F)(F)F [CPD0021561] | System: Recombinant human MALT-1 (amino acids 340-824) (Homo sapiens (Human), UniProt Q9UDY8) | pIC50: 7.20

Item: O=C(N[C@@H](c1ccc(N2CCCc3c2cnc2cc(Cl)nn32)cc1)C(F)(F)F)C1CCS(=O)(=O)CC1 [CPD0021755] | System: Recombinant human MALT-1 (amino acids 340-824) (Homo sapiens (Human), UniProt Q9UDY8) | pIC50: 6.36

Item: CN(C(=O)[C@@H]1CS(=O)(=O)CC12CC2)[C@@H](c1ccc(N2CCCc3c2cnc2cc(Cl)nn32)cc1)C(F)(F)F (relative stereo) [CPD0073968] | System: Recombinant human MALT-1 (amino acids 340-824) (Homo sapiens (Human), UniProt Q9UDY8) | pIC50: 7.00

Item: CN(C(=O)C1C2CS(=O)(=O)CC21)[C@@H](c1ccc(N2CCCc3c2cnc2cc(Cl)nn32)cc1)C(F)(F)F (stereo partly shown) [CPD0072801] | System: Recombinant human MALT-1 (amino acids 340-824) (Homo sapiens (Human), UniProt Q9UDY8) | pIC50: 7.02

Item: CN(C(=O)[C@H]1C[C@H](C(=O)O)C1)[C@@H](c1ccc(N2CCCc3c2cnc2cc(Cl)nn32)cc1)C(F)(F)F [CPD0072439] | System: Recombinant human MALT-1 (amino acids 340-824) (Homo sapiens (Human), UniProt Q9UDY8) | pIC50: 7.46

Item: CN(C(=O)[C@H]1CC[S@@](=N)(=O)CC1)[C@@H](c1ccc(N2CCC(C)(C)c3c2cnc2cc(Cl)nn32)cc1)C(F)(F)F (relative stereo) [CPD0072784] | System: Recombinant human MALT-1 (amino acids 340-824) (Homo sapiens (Human), UniProt Q9UDY8) | pIC50: 7.13

Item: CN(C(=O)[C@H]1CC[S@@](=N)(=O)CC1)[C@@H](c1ccc(N2CCCc3c2cnc2cc(Cl)nn32)cc1)C(F)(F)F (relative stereo) [CPD0072528] | System: Recombinant human MALT-1 (amino acids 340-824) (Homo sapiens (Human), UniProt Q9UDY8) | pIC50: 7.49

Item: CN(C(=O)[C@H]1C[C@](O)(C(F)(F)F)C1)[C@@H](c1ccc(N2CCCc3c2cnc2cc(Cl)nn32)cc1)C(F)(F)F [CPD0072441] | System: Recombinant human MALT-1 (amino acids 340-824) (Homo sapiens (Human), UniProt Q9UDY8) | pIC50: 6.95

Item: CN(C(=O)[C@H]1CC[S@+]([O-])CC1)[C@@H](c1ccc(N2CCC(C)(C)c3c2cnc2cc(F)nn32)cc1)C(F)(F)F (relative stereo) [CPD0072781] | System: Recombinant human MALT-1 (amino acids 340-824) (Homo sapiens (Human), UniProt Q9UDY8) | pIC50: 7.22

Item: CN(C(=O)C1CC[S+]([O-])CC1)[C@@H](c1ccc(N2CCCc3c2cnc2cc(Cl)nn32)cc1)C(F)(F)F (stereo partly shown) [CPD0019481] | System: Recombinant human MALT-1 (amino acids 340-824) (Homo sapiens (Human), UniProt Q9UDY8) | pIC50: 7.12

Item: CN1CCN(CC(=O)N(C)[C@@H](c2ccc(N3CCCc4c3cnc3cc(Cl)nn43)cc2)C(F)(F)F)CC1 [CPD0021746] | System: Recombinant human MALT-1 (amino acids 340-824) (Homo sapiens (Human), UniProt Q9UDY8) | pIC50: 6.28

Item: CN(C(=O)C1CC2(C1)CS(=O)(=O)C2)[C@@H](c1ccc(N2CCCc3c2cnc2cc(Cl)nn32)cc1)C(F)(F)F [CPD0072937] | System: Recombinant human MALT-1 (amino acids 340-824) (Homo sapiens (Human), UniProt Q9UDY8) | pIC50: 7.12

Item: CN(C(=O)C1CNC(=O)N1)[C@@H](c1ccc(N2CCCc3c2cnc2cc(Cl)nn32)cc1)C(F)(F)F (stereo in doubt) [CPD0075579] | System: Recombinant human MALT-1 (amino acids 340-824) (Homo sapiens (Human), UniProt Q9UDY8) | pIC50: 7.36

Item: COC(=O)N1CCC(C(=O)N(C)[C@@H](c2ccc(N3CCCc4c3cnc3cc(Cl)nn43)cc2)C(F)(F)F)CC1 [CPD0073691] | System: Recombinant human MALT-1 (amino acids 340-824) (Homo sapiens (Human), UniProt Q9UDY8) | pIC50: 7.00

Item: CN1CC[C@@H](C(=O)N(C)[C@@H](c2ccc(N3CCCc4c3cnc3cc(Cl)nn43)cc2)C(F)(F)F)CC1=O (relative stereo) [CPD0073142] | System: Recombinant human MALT-1 (amino acids 340-824) (Homo sapiens (Human), UniProt Q9UDY8) | pIC50: 7.17

Item: C[C@@H]1CCc2c(cnc3cc(Cl)nn23)N1c1ccc([C@H](N(C)C(=O)[C@H]2CC[S@](=N)(=O)CC2)C(F)(F)F)cc1 (relative stereo) [CPD0074551] | System: Recombinant human MALT-1 (amino acids 340-824) (Homo sapiens (Human), UniProt Q9UDY8) | pIC50: 7.24

---

Tested on: IL-2 secretion by human effector memory T cells (TEM)
method notes: Effector memory T cells IL-2 release assay
Format: cell-based
run parameters: T-cell; human CD4+ effector memory T cells, CD3/CD28 bead stimulation, 24 h; read-out: CD4TC IL2 IC50
In this scheme, each record receives a class according to its IC50; the ranges are L (below 100 nM), M (100 nM to below 300 nM), H (300 nM or more)

## Task Which class does CN1CC[C@@H](C(=O)N(C)[C@@H](c2ccc(N3CCCc4c3cnc3cc(Cl)nn43)cc2)C(F)(F)F)CC1=O (relative stereo) [CPD0073142] fall in?
## Result M

## Task Which class does COc1ccc2ncc(Nc3ccc([C@H](N(C)C(=O)[C@H]4CC[S@](=N)(=O)CC4)C(F)(F)F)cc3)c([C@@H](C)OC)c2n1 [CPD0075563] fall in?
## Result M

## Task Which class does CN(C(=O)[C@H]1CC[S@+]([O-])CC1)[C@@H](c1ccc(N2CCC3(CC3)c3c2cnc2cc(Cl)nn32)cc1)C(F)(F)F (relative stereo) [CPD0072779] fall in?
## Result L

## Task Which class does CN(C(=O)C1CCS(=O)(=O)CC1)[C@@H](c1ccc(N2CCCc3c2cnc2cc(F)nn32)nc1)C(F)(F)F [CPD0021665] fall in?
## Result H

## Task Which class does CN1C[C@@H](C(=O)N(C)[C@@H](c2ccc(N3CCCc4c3cnc3cc(Cl)nn43)cc2)C(F)(F)F)CC1=O (relative stereo) [CPD0073557] fall in?
## Result M

## Task Which class does CN=[S@]1(=O)CC[C@H](C(=O)N(C)[C@@H](c2ccc(N3CCCc4c3cnc3cc(Cl)nn43)cc2)C(F)(F)F)CC1 (relative stereo) [CPD0072531] fall in?
## Result M

## Task Which class does CN(C(=O)[C@@H]1C[C@H]2CC[C@@H](C1)S2(=O)=O)[C@@H](c1ccc(N2CCCc3c2cnc2cc(Cl)nn32)cc1)C(F)(F)F [CPD0072938] fall in?
## Result L

## Task Which class does CN(C(=O)C1CS(=O)(=O)C1)[C@@H](c1ccc(N2CCCc3c2cnc2cc(Cl)nn32)cc1)C(F)(F)F [CPD0021575] fall in?
## Result M

## Task Which class does CN(C(=O)[C@H]1C[C@@H](S(C)(=O)=O)C1)[C@@H](c1ccc(N2CCCc3c2cnc2cc(Cl)nn32)cc1)C(F)(F)F [CPD0073502] fall in?
## Result M

## Task Which class does COc1ccc2ncc3c(c2n1)C(O)CCN3c1ccc([C@H](N(C)C(=O)C2CCS(=O)(=O)CC2)C(F)(F)F)cc1 (some centres unmarked) [CPD0072449] fall in?
## Result H

---

Test system: IL-2 secretion by human effector memory T cells (TEM)
method notes: Effector memory T cells IL-2 release assay
Assay type: cell-based
run parameters: T-cell; human CD4+ effector memory T cells, CD3/CD28 bead stimulation, 24 h; read-out: CD4TC IL2 IC50
Procedure: Effector Memory T Cells IL-2 Release Assay Test compound-mediated inhibition of NFκB signalling in T cells was assessed by quantification of the IL-2 secretion by human effector memory T cells (TEM) upon treatment and stimulation. Human TEM cells were isolated from buffy coats of healthy donors obtained from the French blood bank. […]
Exercise: for every item that follows, state its recorded pIC50.
# pIC50 is unitless: minus log10 of the molar concentration; print number only

The compound listed as CN(C(=O)[C@@H]1CCN(S(C)(=O)=O)C1)[C@@H](c1ccc(N2CCCc3c2cnc2cc(Cl)nn32)cc1)C(F)(F)F (relative stereo) [CPD0073144] has a reported pIC50 of 6.94

The compound listed as CN(C(=O)[C@H]1CCN(C(=O)CC#N)C1)[C@@H](c1ccc(N2CCCc3c2cnc2cc(Cl)nn32)cc1)C(F)(F)F [CPD0073191] has a reported pIC50 of 6.83

The compound listed as CN(C(=O)C1CCS(=O)(=O)CC1)[C@@H](c1ccc(N2CC[C@@]3(CCOC3)c3c2cnc2cc(Cl)nn32)cc1)C(F)(F)F [CPD0073762] has a reported pIC50 of 6.98
